assayTarget: PPAR-γ (Homo sapiens)
Sequence (P37231 whole entry, species assumed): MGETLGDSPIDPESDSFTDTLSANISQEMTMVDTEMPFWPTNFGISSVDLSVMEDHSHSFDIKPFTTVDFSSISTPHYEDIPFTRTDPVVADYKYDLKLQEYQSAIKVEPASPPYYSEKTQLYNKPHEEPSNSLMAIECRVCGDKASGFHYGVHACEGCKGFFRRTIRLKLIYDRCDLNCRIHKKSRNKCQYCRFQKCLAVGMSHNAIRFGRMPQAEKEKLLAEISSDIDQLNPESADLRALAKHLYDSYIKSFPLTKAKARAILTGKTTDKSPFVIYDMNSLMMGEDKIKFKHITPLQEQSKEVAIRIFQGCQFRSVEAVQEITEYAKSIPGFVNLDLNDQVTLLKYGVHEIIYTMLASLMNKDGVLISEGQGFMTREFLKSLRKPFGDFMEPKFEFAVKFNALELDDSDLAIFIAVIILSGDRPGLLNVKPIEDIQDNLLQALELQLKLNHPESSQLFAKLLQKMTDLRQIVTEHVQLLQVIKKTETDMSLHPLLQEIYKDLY
assayNotes: Scintillation Proximity Assay (SPA), displacement of 3H labeled darglitazone
Assay type: binding
experimentalParameters: 3H darglitazone displacement, read-out: PPAR-gamma Ki
recordedEndpoint: Ki (nM)

compound	value
CC(C)(Oc1cccc(CNC(=O)OCc2cccc(Oc3ccccc3)c2)c1)C(=O)O	170
Cn1nc(-c2ccccc2)nc1CCOc1cccc(-c2cccc(OC(C)(C)C(=O)O)c2)c1	3200
CC(C)(Oc1cccc(CNC(=O)OCCc2cccc(C(F)(F)F)c2)c1)C(=O)O	31000
CCOC(Cc1cccc(CNC(=O)OCCc2nc(-c3ccccc3)oc2C)c1)C(=O)O (stereo not shown)	1600

---

assayTarget: UniProt Q07869
Sequence (Q07869 1-468): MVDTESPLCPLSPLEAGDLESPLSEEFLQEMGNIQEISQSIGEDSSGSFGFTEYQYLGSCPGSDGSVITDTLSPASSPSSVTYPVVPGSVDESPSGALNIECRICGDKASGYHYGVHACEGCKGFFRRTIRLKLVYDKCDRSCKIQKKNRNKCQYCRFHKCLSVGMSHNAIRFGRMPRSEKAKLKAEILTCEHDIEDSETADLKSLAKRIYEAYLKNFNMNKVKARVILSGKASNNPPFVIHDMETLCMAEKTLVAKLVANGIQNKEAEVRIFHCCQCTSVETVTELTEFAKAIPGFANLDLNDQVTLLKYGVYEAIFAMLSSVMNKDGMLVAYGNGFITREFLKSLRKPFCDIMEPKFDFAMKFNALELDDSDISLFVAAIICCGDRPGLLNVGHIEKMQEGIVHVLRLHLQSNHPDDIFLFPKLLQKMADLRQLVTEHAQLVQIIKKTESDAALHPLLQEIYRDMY
assayNotes: Scintillation Proximity Assay (SPA), displacement of 3H labeled GW2331
Type: binding
experimentalParameters: 3H GW2331 displacement, read-out: PPAR-alpha Ki
pKi: −log10 of the molar value.
Here, each record is paired with measured pKi data.

molecule	pKi
Cn1nc(-c2ccccc2)nc1COc1cccc(-c2cccc(OC3(C(=O)O)CCC3)c2)c1 [Example A-19]	6.15
Cc1nn(-c2ccccc2)nc1CCOc1cccc(-c2cccc(OC(C)(C)C(=O)O)c2)c1 [Example A-26]	6.48
Cc1nn(-c2ccccc2)nc1COc1cccc(-c2cccc(OC3(C(=O)O)CCC3)c2)c1 [Example A-18]	4.85
CCOC(Cc1cccc(CNC(=O)OCCc2nc(-c3ccccc3)oc2C)c1)C(=O)O (stereo not shown) [Example B-24]	6.00

---

assayTarget: PPAR-α (Homo sapiens, UniProt Q07869)
assayNotes: Scintillation Proximity Assay (SPA), displacement of 3H labeled GW2331
Assay type: binding
experimentalParameters: 3H GW2331 displacement, read-out: PPAR-alpha Ki
recordedEndpoint: Ki (µM)

compound	assayTarget	value
Cc1oc(-c2ccccc2)nc1COc1cccc(-c2cccc(OC(C)(C)C(=O)O)c2)c1 [Example A-24]	PPAR-α (Homo sapiens, UniProt Q07869)	0.018
CCC(Oc1cccc(CNC(=O)OCc2ccc(-c3noc(C)n3)cc2)c1)C(=O)O (stereo not shown) [Example B-27]	PPAR-α (Homo sapiens, UniProt Q07869)	0.22
Cc1oc(-c2ccc(C(F)(F)F)cc2)nc1CCOc1ccc(CC2(C(=O)O)CCC2)cc1 [Example C-33]	PPAR-α (Homo sapiens, UniProt Q07869)	0.01
Cc1oc(-c2ccccc2)nc1CCOc1ccc(-c2cccc(OC3(C(=O)O)CCC3)c2)cc1 [Example A-10]	PPAR-α (Homo sapiens, UniProt Q07869)	4.4

Measured values drawn from patent US20050234066A1 for this set.
